Origin of measurements: patent US9023816B2

Quick reference for pIC50 among some compounds
# System: IkappaB kinase β (IKK-β) (Homo sapiens)
# Construct: purchased Invitrogen
# Sequence (O14920 1-756): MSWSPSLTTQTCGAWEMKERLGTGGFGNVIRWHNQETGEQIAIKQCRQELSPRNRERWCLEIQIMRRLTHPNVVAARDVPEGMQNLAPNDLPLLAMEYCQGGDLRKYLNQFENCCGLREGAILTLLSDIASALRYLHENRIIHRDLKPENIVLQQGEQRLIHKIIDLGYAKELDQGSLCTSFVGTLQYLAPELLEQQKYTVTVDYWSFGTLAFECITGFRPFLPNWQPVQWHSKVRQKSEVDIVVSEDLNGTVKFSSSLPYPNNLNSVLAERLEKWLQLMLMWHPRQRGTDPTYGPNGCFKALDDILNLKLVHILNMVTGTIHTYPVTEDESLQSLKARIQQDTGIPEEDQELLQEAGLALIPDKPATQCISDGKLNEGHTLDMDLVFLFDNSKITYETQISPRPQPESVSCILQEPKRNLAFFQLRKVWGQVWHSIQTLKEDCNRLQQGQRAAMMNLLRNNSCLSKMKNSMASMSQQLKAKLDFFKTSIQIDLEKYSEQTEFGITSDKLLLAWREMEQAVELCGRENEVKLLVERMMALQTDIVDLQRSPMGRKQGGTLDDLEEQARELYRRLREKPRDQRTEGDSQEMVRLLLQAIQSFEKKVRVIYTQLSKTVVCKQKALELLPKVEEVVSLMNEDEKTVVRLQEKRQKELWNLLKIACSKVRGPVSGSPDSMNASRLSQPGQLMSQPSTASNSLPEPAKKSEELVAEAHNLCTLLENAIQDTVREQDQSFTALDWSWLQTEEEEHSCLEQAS
# Test protocol: IKK-β inhibition, Z'-LYTE Kinase Assay Kit Ser/Thr 5 Peptide (FRET)
# Type: biochemical
# Conditions: read-out: Inhibitory effect on IKK-β IC-50
# Description: IKK-β phosphorylates the inhibitory IκB protein associated with NF-κB. Phosphorylation results in the dissociation of IκB from NF-κB, allowing NF-κB to migrate into the cell nucleus where it can activate the transcription of at least 150 genes. The Z9-LYTE™ Kinase Assay Kit—Ser/Thr 5 Peptide is designed to screen for potential IKK-β inhibitory effect using fluorescence resonance energy transfer (FRET) between coumarin and fluorescein for detection by a fluorometer. […]
pIC50: −log10 of the molar value.

- Smiles notation: "N#C/C(=C\\CO[C@@H]1O[C@H](CO)[C@@H](O)[C@H](O)[C@H]1O)COC(=O)c1ccc(O)cc1"
  pIC50: 5.72
- Smiles notation: "N#C/C(=C\\CO[C@@H]1O[C@H](CO)[C@@H](O)[C@H](O)[C@H]1O)COC(=O)/C=C/c1ccc(O)c(O)c1"
  pIC50: 6.89
- Smiles notation: "N#C/C(=C\\CO[C@@H]1O[C@H](CO)[C@@H](O)[C@H](O)[C@H]1O)COC(=O)/C=C/c1ccc(O)cc1"
  pIC50: 4.82
- Smiles notation: "COc1cc(/C=C/C(=O)OC/C(C#N)=C/CO[C@@H]2O[C@H](CO)[C@@H](O)[C@H](O)[C@H]2O)ccc1O"
  pIC50: 5.20

###

# System: phosphodiesterase 4 (PDE4), PDE4A1A (Homo sapiens)
# Construct: purchased BSP Bioscience 60340
# Sequence (P27815 1-647 isoform P27815-4): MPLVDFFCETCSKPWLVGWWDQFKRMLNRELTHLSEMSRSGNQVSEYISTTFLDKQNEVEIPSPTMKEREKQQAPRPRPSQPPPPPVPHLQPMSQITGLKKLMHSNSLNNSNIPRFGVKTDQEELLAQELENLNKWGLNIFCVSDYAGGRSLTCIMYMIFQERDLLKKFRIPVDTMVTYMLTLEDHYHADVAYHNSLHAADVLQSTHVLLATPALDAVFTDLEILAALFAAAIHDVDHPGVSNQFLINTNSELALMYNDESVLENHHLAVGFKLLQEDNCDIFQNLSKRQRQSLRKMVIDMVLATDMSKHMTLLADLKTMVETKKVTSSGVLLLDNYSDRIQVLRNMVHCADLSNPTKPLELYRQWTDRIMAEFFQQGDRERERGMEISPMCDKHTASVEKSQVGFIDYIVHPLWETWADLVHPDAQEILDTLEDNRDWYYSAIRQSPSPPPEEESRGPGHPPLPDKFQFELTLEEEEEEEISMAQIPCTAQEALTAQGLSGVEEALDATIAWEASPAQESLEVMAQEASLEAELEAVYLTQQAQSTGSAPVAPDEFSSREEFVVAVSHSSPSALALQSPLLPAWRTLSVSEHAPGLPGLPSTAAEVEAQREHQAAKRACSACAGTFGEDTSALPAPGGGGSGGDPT
# Test protocol: PDE4A1A Assay Kit, fluorescence polarization
# Assay type: biochemical
# Source text: Inhibition of PDE4 blocks hydrolysis of cAMP, thereby increasing levels of cAMP. The PDE4A1A Assay Kit is designed for identification of PDE4A1A inhibitors using fluorescence polarization. The assay is based on the binding of fluorescent AMP generated by PDE4A1A to the binding agent. […] A fluorescence plate reader (Appliskan, Thermo Scientific) was used to detect fluorescence emission signals according to the following parameters: […]
pIC50: −log10 of the molar value.

- Compound: "COc1cc(C(=O)OC/C(C#N)=C/CO[C@@H]2O[C@H](CO)[C@@H](O)[C@H](O)[C@H]2O)ccc1O [Ribetril D]"
  pIC50: 6.64
